Target entity: SARS-CoV-2 PLpro (Severe acute respiratory syndrome coronavirus 2, UniProt P0DTD1)
Assay remarks: biochemical
Condition info: read-out: PLpro % inhibition at 10 µM
The entries below come with measured inhibition at 10 µM values attached.
State the answer as a number, implicitly in %.

Reference set (2 entries):
[[record]]
compound = "CC(=O)c1ccc(N(Cc2cn(S(=O)(=O)c3ccc(C)cc3)nn2)C2=CC(=O)c3ccccc3C2=O)cc1"
val = 9

[[record]]
compound = "Cc1ccc(S(=O)(=O)n2cc(CNC3=C(Br)C(=O)c4ccccc4C3=O)nn2)cc1"
val = 17


Return value of inhibition at 10 µM for input COc1ccc(SC2=C(Sc3ccc(OC)cc3)C(=O)c3ccccc3C2=O)cc1 , no commentary.
0

Return value of inhibition at 10 µM for input CC1(C)CC2=C(O1)c1ccccc1C(=NNc1ccccc1)C2=O , no commentary.
4

Return value of inhibition at 10 µM for input CC1(C)OC2=C(C(=O)C(=O)c3ccccc32)C1n1cc(CNC2=C(Br)C(=O)c3ccccc3C2=O)nn1 (stereo not shown) , no commentary.
93

Return value of inhibition at 10 µM for input CC1(C)OC2=C(C(=O)C(=O)c3ccccc32)C1n1cc(-c2ccccc2)nn1 (stereo not shown) , no commentary.
100

Return value of inhibition at 10 µM for input CC(=O)NC1=CC(=O)c2cccc(O)c2C1=O , no commentary.
38

Return value of inhibition at 10 µM for input Cc1ccc(S(=O)(=O)n2cc(CNC3=C(Cl)C(=O)c4ccccc4C3=O)nn2)cc1 , no commentary.
31

Return value of inhibition at 10 µM for input CC1(C)OC2=C(C(=O)C(=O)c3ccccc32)C1n1cc(CNC2=CC(=O)c3ccccc3C2=O)nn1 (stereo not shown) , no commentary.
100

Return value of inhibition at 10 µM for input CC1(C)OC2=C(CC1Br)C(=O)C(=NNc1ccccc1)c1ccccc12 (stereo not shown) , no commentary.
0

Return value of inhibition at 10 µM for input O=C1C(Sc2ccc(Br)cc2)=C(Sc2ccc(Br)cc2)C(=O)c2ccccc21 , no commentary.
12

Return value of inhibition at 10 µM for input O=C1C(Sc2ccccc2)=C(Sc2ccccc2)C(=O)c2ccccc21 , no commentary.
0

Return value of inhibition at 10 µM for input Cc1ccc(S(=O)(=O)c2cccc3c2C(=O)c2ccccc2C3=O)cc1 , no commentary.
0
